System: EKVX NSCLC
Assay: NCI tumour cell line growth inhibition, 48 h
quantityKind: TGI

Record TGI for all entries; do not skip any.
1. Cc1ccc(S(=O)(=O)n2ccc(-c3ccc4ccn(S(=O)(=O)c5ccc(C)cc5)c4c3)c2)cc1
2. CC(=O)OC(C)(C)CCC(=O)[C@](C)(O)[C@H]1[C@H](O)C[C@@]2(C)[C@@H]3CC=C4C(C)=C(OC5OC(CO)C(O)C(O)C5O)C(=O)C[C@@H]4[C@]3(C)C(=O)C[C@]12C (stereo partly specified)
3. CCc1ccc2nccc(NCCCN(C)C)c2c1[N+](=O)[O-]
4. Nc1cc(S(N)(=O)=O)ccc1SSc1ccc(S(N)(=O)=O)cc1N
5. CCCCCCCCCCCCCCCCCC(=O)Nc1ccn(C2CCC(COP(=O)(O)O)O2)c(=O)n1 (stereo unspecified)
6. COc1cccc(CCC(=O)c2cc3c(N)c(C(=O)Nc4cccc(Cl)c4C)sc3nc2C)c1

Output:
1: > 100 µM; 2: > 100 µM; 3: > 100 µM; 4: > 100 µM; 5: > 100 µM; 6: > 100 µM

I would be grateful if you could provide TGI for each of the following entries.
1. CCOC(=O)C(=O)CC(=O)C1=C(c2ccccc2OC)CC(c2cccs2)=CC1=O
2. COc1cccc(-c2nccc3c(OCc4ccccc4)c(OC)c(OC)cc23)c1
3. CC(C)C[C@H](NC(=O)[C@H](Cc1cccc2ccccc12)NS(=O)(=O)c1cccc2cccnc12)B(O)O
4. O=[N+]([O-])c1cccc(Cl)c1Oc1ccc(S(=O)(=O)/N=C(\NO)Nc2ccc(Cl)cc2)cc1
5. FC(F)(F)c1cccc2c(SCCc3n[nH]c(=S)o3)ccnc12
6. O=C1/C(=C/c2ccccc2)NC(=S)N1CN1CCCCC1

Output:
> 100 µM
> 100 µM
> 100 µM
26.2 µM
> 100 µM
> 100 µM

Provide each entry's TGI from the list below.
1. N#C/C(=C\c1c(-c2ccccc2)[nH]c2ccccc12)C(=O)c1ccccc1
2. CCC(=O)/C(=C\I)c1ccccc1
3. CCCCCN(CCCCC)CC(C)(C)C(O)c1ccc(OC)c2ccccc12 (stereo unspecified)
4. S=c1sc2cscc2s1

Output:
1: > 100 µM; 2: 33.6 µM; 3: 25.9 µM; 4: 35.5 µM

###

Test system: NCI-H460 lung
Assay: NCI tumour cell line growth inhibition, 48 h
quantityKind: TGI

O=[N+]([O-])c1cccc(Cl)c1Oc1ccc(S(=O)(=O)/N=C(\NO)Nc2ccc(Cl)cc2)cc1 : 29.3 µM
CN1C[C@@H]2Cn3c(c(C4=C(c5cn(C)c6ccccc56)C(=O)NC4=O)c4ccccc43)C[C@H]2C1 : 8.9 µM
CN(CC(=O)O)Cc1oc(CO)cc(=O)c1O : > 100 µM
O=[N+]([O-])c1ccc([N+]2=NC(c3ccccc3)=NN(c3ccccc3)C2)cc1 : > 100 µM
COc1cccc(N=N/C(=N\NC(=O)c2cc(Br)ccc2O)c2ccc(N(CCC#N)CCC#N)cc2OC)c1 : 82.7 µg/mL
COc1cc(F)c(/C=C/c2cc(/C=C/c3cc(OC)c(OC)cc3F)n(-c3cc(F)cc(F)c3)n2)cc1OC : 12.2 µM
COc1ccc2c(c1)c(-c1ccc(-c3cn(C)c4ccc(OC)cc34)[nH]1)cn2C : 19.5 µM
COc1nc2c(nc(N)n2C2OCC(O)C(O)C2O)c(=O)n1C (configuration not stated) : > 100 µM

Please supply TGI for each of the following items, keeping them in order.
1. C[C@@H](COCCC(=O)N1CCN(c2ncc(C(F)(F)F)cn2)CC1)Nc1cn[nH]c(=O)c1C(F)(F)F
2. CN(C)CCSCCO
3. NC(=O)c1ccccc1NC(=O)c1ccccc1Cl
4. O=C(O)CNC(=O)c1ccc2cc(C(=O)N3CC(CCl)c4ccc([N+](=O)[O-])cc43)[nH]c2c1 (configuration not stated)

Output:
["> 100 µM", "> 100 µM", "> 100 µM", "> 100 µM"]

Recorded values, source PubChem BioAssay (NCI).
